// provenance: paper PMC4472604

# target: T1, 6TM/E11 6TM/E11 splice variant (Mus musculus), P42866
# T1 chain: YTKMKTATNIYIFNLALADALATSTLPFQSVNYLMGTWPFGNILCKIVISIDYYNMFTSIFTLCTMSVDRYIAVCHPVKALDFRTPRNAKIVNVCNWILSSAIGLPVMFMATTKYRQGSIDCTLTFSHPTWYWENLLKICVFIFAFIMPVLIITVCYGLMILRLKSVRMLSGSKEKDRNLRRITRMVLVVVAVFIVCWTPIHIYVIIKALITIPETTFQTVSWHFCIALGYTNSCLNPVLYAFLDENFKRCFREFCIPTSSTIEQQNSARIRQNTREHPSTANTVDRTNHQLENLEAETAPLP
# run-description: radioligand
# condition-description: modification not given

binder: YAFEIIG [peptide 1]
Ki: > 1000 nM
//
binder: YAFEVVG [[D-Ala2]deltorphin II]
Ki: > 1000 nM
